Molecular target: UniProt Q9Y210
Assay: TRPC6 calcium flux assay (FLIPR, OAG-stimulated calcium influx)
Settings: HEK293 cells stably transfected with human TRPC6, read-out: hTRPC6 Potency
Structures can show the parent of a compound that is named as a salt.
Measured quantity: pIC50
Field pIC50 (float): negative decimal logarithm of the concentration in molar.

Here's what some known entries look like.
Returns the measured pIC50 for the input molecule. Input: CNC(=O)C1CN(C(=O)Cn2c(N3CC[C@@H](F)[C@H](N)C3)nc3cc(F)c(F)cc32)CCO1 (stereo partly shown)
5.72

Returns the measured pIC50 for the input molecule. Input: N#Cc1ccc(Cn2c(N3CC[C@H](F)[C@H](N)C3)nc3c(Cl)cccc32)nc1
8.53

Returns the measured pIC50 for the input molecule. Input: CN1CCC(n2c(N3CC[C@@H](F)[C@H](N)C3)nc3cc(F)c(F)cc32)C1=O (mixture of isomers)
6.73

Returns the measured pIC50 for the input molecule. Input: N#Cc1ccc2c(c1)CC[C@@H]2n1c(N2CC[C@@H](F)[C@H](N)C2)nc2ccccc21 [Example 232, hydrochloride]
8.67

Returns the measured pIC50 for the input molecule. Input: CN(C)C(=O)Cn1c(N2CC[C@@H](F)[C@H](N)C2)nc2cc(OC(F)(F)F)ccc21
6.39

Shifting focus to the molecule that follows.
Returns the measured pIC50 for the input molecule. Input: N[C@@H]1CN(c2nc3cc(F)c(F)cc3n2Cc2ccc(F)cc2Cl)CC[C@H]1F
7.43

----------
Each entry below lists one item and its recorded IC50 value.
Target: human TRPC6 (Homo sapiens, UniProt Q9Y210)
Sequence (Q9Y210 1-931): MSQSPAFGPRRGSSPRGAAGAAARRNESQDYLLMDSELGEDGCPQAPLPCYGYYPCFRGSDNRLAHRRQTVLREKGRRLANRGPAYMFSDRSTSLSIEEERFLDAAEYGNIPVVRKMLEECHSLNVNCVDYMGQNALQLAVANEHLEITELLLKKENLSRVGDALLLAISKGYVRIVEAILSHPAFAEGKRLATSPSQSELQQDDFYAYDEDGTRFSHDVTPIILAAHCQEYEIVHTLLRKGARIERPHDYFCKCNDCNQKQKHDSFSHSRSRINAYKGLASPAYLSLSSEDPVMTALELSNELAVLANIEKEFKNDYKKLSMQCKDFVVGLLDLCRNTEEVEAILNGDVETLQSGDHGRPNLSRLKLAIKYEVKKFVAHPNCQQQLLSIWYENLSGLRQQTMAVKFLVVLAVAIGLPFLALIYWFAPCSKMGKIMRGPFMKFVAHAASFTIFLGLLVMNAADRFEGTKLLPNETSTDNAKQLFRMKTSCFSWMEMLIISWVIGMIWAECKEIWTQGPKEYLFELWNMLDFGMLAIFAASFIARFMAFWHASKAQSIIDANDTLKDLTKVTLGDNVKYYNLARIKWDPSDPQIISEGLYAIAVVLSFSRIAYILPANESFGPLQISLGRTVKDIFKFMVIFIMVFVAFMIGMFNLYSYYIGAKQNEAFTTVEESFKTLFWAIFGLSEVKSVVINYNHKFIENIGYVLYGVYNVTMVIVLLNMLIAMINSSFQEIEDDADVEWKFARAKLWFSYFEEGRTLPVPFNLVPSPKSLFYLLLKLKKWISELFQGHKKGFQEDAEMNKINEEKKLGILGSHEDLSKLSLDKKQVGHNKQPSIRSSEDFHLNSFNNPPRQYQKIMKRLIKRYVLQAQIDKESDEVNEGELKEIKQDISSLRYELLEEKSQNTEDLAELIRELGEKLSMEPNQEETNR
Test: TRPC6 calcium flux assay (FLIPR, OAG-stimulated calcium influx)
Settings: HEK293 cells stably transfected with human TRPC6, read-out: hTRPC6 Potency
Structures can show the parent of a compound that is named as a salt.
Give the number; nM is assumed, so skip it.

Returns the measured IC50 for the input molecule. Input: N[C@@H]1CCCN(c2nc3ccccc3n2Cc2ccccc2Cl)C1
3410

Returns the measured IC50 for the input molecule. Input: CN(CC(F)(F)F)C(=O)Cn1c(N2CC[C@@H](F)[C@H](N)C2)nc2cc(C(F)(F)F)ccc21
365

Returns the measured IC50 for the input molecule. Input: CCN(CCOC)C(=O)Cn1c(N2CC[C@@H](F)[C@H](N)C2)nc2ccc(F)cc21
1430

Returns the measured IC50 for the input molecule. Input: N#Cc1ccc(Cn2c(N3CC[C@@](O)(CN)C3)nc3ccccc32)cc1 [Example 176, 2,2,2-trifluoroacetate]
2330

Returns the measured IC50 for the input molecule. Input: N#Cc1ccc(Cn2c(N3CCC[C@@H](N)C3)nc3ccccc32)c(F)c1
319

Returns the measured IC50 for the input molecule. Input: COc1ccnc(Cn2c(N3CC[C@@H](F)[C@H](N)C3)nc3cc(F)ccc32)c1
1490

Returns the measured IC50 for the input molecule. Input: C[C@@H](c1ccc(C#N)cc1)n1c(N2CC[C@H](F)[C@H](N)C2)nc2ccccc21 [Example 318, hydrochloride]
37.7

----------
Target: human TRPC6 (Homo sapiens, UniProt Q9Y210)
Sequence (Q9Y210 1-931): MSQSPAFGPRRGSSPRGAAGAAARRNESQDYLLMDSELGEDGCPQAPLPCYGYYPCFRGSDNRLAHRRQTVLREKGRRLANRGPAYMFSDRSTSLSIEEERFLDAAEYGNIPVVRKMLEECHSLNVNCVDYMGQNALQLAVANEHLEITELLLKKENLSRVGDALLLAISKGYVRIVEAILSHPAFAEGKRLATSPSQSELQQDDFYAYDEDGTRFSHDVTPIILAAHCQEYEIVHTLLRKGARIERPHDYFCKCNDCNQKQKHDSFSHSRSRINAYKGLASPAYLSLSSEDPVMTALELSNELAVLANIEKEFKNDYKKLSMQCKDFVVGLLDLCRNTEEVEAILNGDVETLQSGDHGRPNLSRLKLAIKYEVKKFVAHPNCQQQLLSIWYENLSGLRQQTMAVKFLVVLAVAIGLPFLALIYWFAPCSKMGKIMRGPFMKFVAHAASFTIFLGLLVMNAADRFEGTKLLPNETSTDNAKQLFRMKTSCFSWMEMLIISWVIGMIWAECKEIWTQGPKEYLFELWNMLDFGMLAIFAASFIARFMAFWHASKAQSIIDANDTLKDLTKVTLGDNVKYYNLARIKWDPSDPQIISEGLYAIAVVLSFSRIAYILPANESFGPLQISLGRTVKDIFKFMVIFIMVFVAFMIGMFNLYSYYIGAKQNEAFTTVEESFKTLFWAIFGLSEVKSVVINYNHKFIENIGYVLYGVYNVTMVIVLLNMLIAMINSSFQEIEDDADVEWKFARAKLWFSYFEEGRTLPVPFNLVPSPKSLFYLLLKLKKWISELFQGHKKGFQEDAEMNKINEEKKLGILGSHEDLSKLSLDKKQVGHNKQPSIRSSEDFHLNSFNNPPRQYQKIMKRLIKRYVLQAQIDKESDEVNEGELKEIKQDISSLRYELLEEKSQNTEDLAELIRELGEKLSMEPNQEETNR
Test: TRPC6 calcium flux assay (FLIPR, OAG-stimulated calcium influx)
Conditions: HEK293 cells stably transfected with human TRPC6, read-out: hTRPC6 Potency
Where a name gives a salt, the structure may show the parent alone.
Could you mark each record Satisfied if its IC50 falls strictly under 20 nM, and Not satisfied if it equals or exceeds it?

// below: answered compounds
Record N[C@@H]1CN(c2nc3c(F)cc(F)cc3n2Cc2ccc(Cl)cn2)CCC1(F)F [Example 230, hydrochloride] : is its IC50 strictly below 20 nM?
Satisfied

Record C[C@@H](c1ccc(C#N)cn1)n1c(N2CC[C@@H](F)[C@H](N)C2)nc2cc(C#N)ccc21 [Example 226, hydrochloride] : is its IC50 strictly below 20 nM?
Satisfied

Record C[C@H](c1ccc(C#N)cn1)n1c(N2CCC[C@H](N)C2)nc2ccccc21 [Example 295, hydrochloride] : is its IC50 strictly below 20 nM?
Satisfied

Record N#Cc1ccc(Cn2c(N3CC[C@@H](F)[C@H](N)C3)nc3nc(C(F)(F)F)ccc32)nc1 : is its IC50 strictly below 20 nM?
Satisfied

Record CN(CC1CCOC1)C(=O)Cn1c(N2CC[C@@H](F)[C@H](N)C2)nc2cc(F)c(F)cc21 (mixture of isomers) : is its IC50 strictly below 20 nM?
Not satisfied

Record N#Cc1ccc(Cn2c(N3CCC[C@H](N)C3)nc3ccc(Cl)cc32)cc1 : is its IC50 strictly below 20 nM?
Satisfied

Record C[C@H]1CCN(c2nc3ccccc3n2Cc2ccc(C#N)cc2)C[C@@H]1N [Example 182, 2,2,2-trifluoroacetate] : is its IC50 strictly below 20 nM?
Not satisfied

Record N#Cc1ccc(Cn2c(N3CC[C@@H](F)[C@H](N)C3)nc3ccncc32)cc1 : is its IC50 strictly below 20 nM?
Not satisfied

Continuing:
Record N#Cc1ccc(Cn2c(N3CCC[C@@H](N)C3)nc3ccccc32)c(Cl)c1 : is its IC50 strictly below 20 nM?
Not satisfied

Record N#Cc1cc(F)cc2c1nc(N1CCC(F)(F)[C@H](N)C1)n2Cc1ncc(Cl)cn1 : is its IC50 strictly below 20 nM?
Satisfied

Record CN(CC(F)(F)F)C(=O)Cn1c(N2CC[C@@H](F)[C@H](N)C2)nc2ccc(Cl)cc21 : is its IC50 strictly below 20 nM?
Satisfied

Record CC(CC#N)N(C)C(=O)Cn1c(N2CC[C@@H](F)[C@H](N)C2)nc2cc(F)c(F)cc21 (mixture of isomers) : is its IC50 strictly below 20 nM?
Not satisfied

Record NC(=O)c1cnc(Cn2c(N3CC[C@@H](F)[C@H](N)C3)nc3ccc(C(F)(F)F)cc32)cn1 : is its IC50 strictly below 20 nM?
Satisfied

Record N#Cc1ccc(Cn2c(N3CC[C@@H](CN)C3)nc3ccccc32)nc1 [Example 81, hydrochloride] : is its IC50 strictly below 20 nM?
Not satisfied
